The origin of these recorded values is patent US7960365B2.

target: recombinant human-GR (GR) (Homo sapiens, UniProt P04150); assay: Glucocorticoid Receptor Competitor Assay kit (PanVera), fluorescence polarisation competition binding; settings: fluormone GS1 1 nM, GR 4 nM, 90 minutes at room temperature
Sequence (P04150 whole entry): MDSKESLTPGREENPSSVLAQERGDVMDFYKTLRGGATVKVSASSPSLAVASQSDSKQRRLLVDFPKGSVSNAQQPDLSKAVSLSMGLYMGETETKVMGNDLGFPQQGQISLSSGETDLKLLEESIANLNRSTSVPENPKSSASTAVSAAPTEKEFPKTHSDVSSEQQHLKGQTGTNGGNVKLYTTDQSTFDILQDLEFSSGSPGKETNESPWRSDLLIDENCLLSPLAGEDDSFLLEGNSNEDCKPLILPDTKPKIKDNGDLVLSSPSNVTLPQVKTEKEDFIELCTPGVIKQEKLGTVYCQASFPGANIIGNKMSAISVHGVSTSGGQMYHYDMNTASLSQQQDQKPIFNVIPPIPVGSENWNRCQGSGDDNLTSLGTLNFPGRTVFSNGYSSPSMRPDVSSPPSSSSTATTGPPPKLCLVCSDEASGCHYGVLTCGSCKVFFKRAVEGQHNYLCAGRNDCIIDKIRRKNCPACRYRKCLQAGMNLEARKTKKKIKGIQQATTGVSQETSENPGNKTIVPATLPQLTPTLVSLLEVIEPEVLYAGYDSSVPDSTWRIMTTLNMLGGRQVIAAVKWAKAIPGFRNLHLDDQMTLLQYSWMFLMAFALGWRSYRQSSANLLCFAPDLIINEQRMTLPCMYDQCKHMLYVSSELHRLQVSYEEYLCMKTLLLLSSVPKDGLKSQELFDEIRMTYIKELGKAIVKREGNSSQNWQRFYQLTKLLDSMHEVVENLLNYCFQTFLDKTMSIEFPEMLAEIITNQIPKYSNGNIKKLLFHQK
Endpoint: pEC50
Note on units: pEC50 is unitless, being -log10 of a concentration expressed in mol/L.

Please give measured pEC50 of the following entry: CC#C[C@]1(O)CC[C@H]2[C@@H]3CCC4=CC(=O)CCC4=C3[C@@H](c3ccc4c(c3)OCO4)C[C@@]21C
8.00
